# system.name: CD80-CD28 interaction (Homo sapiens)
# Construct: mouse Fab fragment (fusion partner)
# Sequence (P33681 35-242 limits assumed): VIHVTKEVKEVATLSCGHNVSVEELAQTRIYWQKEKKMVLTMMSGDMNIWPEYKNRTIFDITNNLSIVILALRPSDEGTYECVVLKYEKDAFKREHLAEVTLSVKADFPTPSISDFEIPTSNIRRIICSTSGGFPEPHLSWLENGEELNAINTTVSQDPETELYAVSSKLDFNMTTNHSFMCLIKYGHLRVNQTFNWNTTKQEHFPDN
# method.summary: cell free Homogenous Time Resolved Fluorescence (HTRF) assay, inhibition of the CD80-CD28 interaction
# Assay type: binding
# experimental.setup: 4 hours at room temperature, read-out: Activity (EC50 in summary form)
# Protocol: The examples described above were tested in a cell free Homogenous Time Resolved Fluorescence (HTRF) assay to determine their activity as inhibitors of the CD80-CD28 interaction. […] Non-specific interaction was measured by substituting a mouse Fab fragment (C215) for the CD80 mouse Fab fragment fusion protein (1.9 μg/ml). […]
The reader will find reported EC50 values listed item by item below.

Reference set (7 entries):
[[record]]
molecule = "COCCCNC(=O)c1cccc(-n2nc3c4cccc(F)c4[nH]cc-3c2=O)c1 [Example 50]"
value_observed = "1000 to 10000 nM"

[[record]]
molecule = "CN(C)CCCCNC(=O)Nc1ccc(-n2nc3c4cccc(F)c4[nH]cc-3c2=O)cc1 [Example 163]"
value_observed = "< 1000 nM"

[[record]]
molecule = "CN(C)CCCCNC(=O)c1cccc(-n2nc3c4cccc(F)c4[nH]cc-3c2=O)c1 [Example 58]"
value_observed = "1000 to 10000 nM"

[[record]]
molecule = "CCCNC(=O)Nc1ccc(-n2nc3c4cccc(F)c4[nH]cc-3c2=O)cc1 [Example 145]"
value_observed = "< 1000 nM"

[[record]]
molecule = "CCCC(C)C(=O)Nc1ccc(-n2nc3c4cccc(F)c4[nH]cc-3c2=O)cc1 (centres unmarked) [Example 2]"
value_observed = "< 1000 nM"

[[record]]
molecule = "O=C(Nc1ccc(-n2nc3c4cccc(F)c4[nH]cc-3c2=O)cc1)c1ccno1 [Example 28]"
value_observed = "1000 to 10000 nM"

[[record]]
molecule = "COC(=O)[C@@H](NC(=O)Nc1ccc(-n2nc3c4ccccc4[nH]cc-3c2=O)cc1)C(C)C [Example 162]"
value_observed = "< 1000 nM"


Kindly consider the entry below.
Task: May I ask what EC50 has been recorded for COC(=O)CC[C@H](N)C(=O)Nc1ccc(-n2nc3c4cccc(F)c4[nH]cc-3c2=O)cc1 [Example 38] ?
Result: 1000 to 10000 nM

meta.source: patent US7291612B2
